- ASSAY_EXPLANATION: Selectivity index, ratio of IC50 for human lymphocytes to IC50 for human HL60 cells
- Assay type: toxicity
- EXPERIMENTAL_SETUP: human lymphocytes versus HL60 cells, read-out: Ratio IC50
# selectivity ratio per entry
MEASURED_QUANTITY: selectivity ratio

MOLECULE: COC(=O)/C(=C\c1ccc(OC(=O)c2ccc(OC)c(OC)c2)cc1)Sc1ccnc2cc(Cl)ccc12
MEASURED_QUANTITY: selectivity ratio
MEASURED_RESULT: 9.66
//
MOLECULE: COC(=O)/C(=C\c1ccc(O)cc1)Sc1ccnc2cc(Cl)ccc12
MEASURED_QUANTITY: selectivity ratio
MEASURED_RESULT: 7.82
//
MOLECULE: COC(=O)/C(=C\c1ccc(OC(=O)c2ccc(OC)cc2)cc1)Sc1ccnc2cc(Cl)ccc12
MEASURED_QUANTITY: selectivity ratio
MEASURED_RESULT: 6.99
//
MOLECULE: COC(=O)/C(=C\c1ccc(OC(=O)c2cccc(OC)c2OC)cc1)Sc1ccnc2cc(Cl)ccc12
MEASURED_QUANTITY: selectivity ratio
MEASURED_RESULT: 6.66
//
MOLECULE: O=[As][As+](=O)[O-] (stereo unspecified) [ARSENIC TRIOXIDE]
MEASURED_QUANTITY: selectivity ratio
MEASURED_RESULT: 3.07
//
MOLECULE: COC(=O)/C(=C\c1ccc(OC(=O)c2cc(OC)cc(OC)c2)cc1)Sc1ccnc2cc(Cl)ccc12
MEASURED_QUANTITY: selectivity ratio
MEASURED_RESULT: 4.42
//
MOLECULE: COC(=O)/C(=C\c1ccc(OC(=O)c2cc(OC)c(OC)cc2OC)cc1)Sc1ccnc2cc(Cl)ccc12
MEASURED_QUANTITY: selectivity ratio
MEASURED_RESULT: 8.34
//
MOLECULE: COC(=O)/C(=C\c1ccc(OC(=O)c2cc(OC)cc(OC)c2OC)cc1)Sc1ccnc2cc(Cl)ccc12
MEASURED_QUANTITY: selectivity ratio
MEASURED_RESULT: 6.91
//
MOLECULE: COC(=O)/C(=C\c1ccc(OC(=O)c2cc(OC)c(OC)c(OC)c2)cc1)Sc1ccnc2cc(Cl)ccc12
MEASURED_QUANTITY: selectivity ratio
MEASURED_RESULT: 8.3
//
MOLECULE: COC(=O)/C(=C\c1ccc(OC(=O)c2ccc(OC)cc2OC)cc1)Sc1ccnc2cc(Cl)ccc12
MEASURED_QUANTITY: selectivity ratio
MEASURED_RESULT: 5.45
//
MOLECULE: COC(=O)/C(=C\c1ccc(OC(=O)c2ccc(OC)c(OC)c2OC)cc1)Sc1ccnc2cc(Cl)ccc12
MEASURED_QUANTITY: selectivity ratio
MEASURED_RESULT: 10.8

###

- ASSAY_EXPLANATION: Inhibition of beta-hematin formation assessed as reduction in acetate buffer-initiated hemozoin formation measured after 48 hrs
- Parameters: concentration or dose not given beside the values
- EXPERIMENTAL_SETUP: concentration not given here
I would appreciate it if you labelled entries 1 when inhibition is 20% or higher, otherwise 0.

COMPOUND_STRING: COC(=O)/C(=C\c1ccc(OC(=O)c2cccc(OC)c2OC)cc1)Sc1ccnc2cc(Cl)ccc12
CLASSIFICATION: 1
--
COMPOUND_STRING: COC(=O)/C(=C\c1ccc(OC(=O)c2cc(OCc3ccccc3)c(OCc3ccccc3)c(OCc3ccccc3)c2)cc1)Sc1ccnc2cc(Cl)ccc12
CLASSIFICATION: 1
--
COMPOUND_STRING: COC(=O)/C(=C\c1ccc(O)cc1)Sc1ccnc2cc(Cl)ccc12
CLASSIFICATION: 1
--
COMPOUND_STRING: COC(=O)/C(=C\c1ccc(OC(=O)c2cc(OC)c(OC)c(OC)c2)cc1)Sc1ccnc2cc(Cl)ccc12
CLASSIFICATION: 0
--
COMPOUND_STRING: COC(=O)/C(=C\c1ccc(OC(=O)c2ccc(OC)c(OC)c2OC)cc1)Sc1ccnc2cc(Cl)ccc12
CLASSIFICATION: 1
